This section presents binders with their documented B50 values.
target: T1, HER2 expressed on the surface of cells (human, UniProt P04626 23-1255); experiment: flow cytometry on BT474 cells, n=1; B50 = concentration at 50% of Bmax
T1 construct: whole, on cells; also called ErbB2

>  <binder>
Variant 14021 (antibody, name in Kabat numbering, V domains shown, also called v14021) VH: EVQLVESGGGLVQPGGSLRLSCAASGFTFQDYTMDWVRQAPGKGLEWVGDVNPNSGGSIYNQRFKGRFTFSVDRSWNTLYLQMNSLRAEDTAVYYCARNLGPSFYFDYWGQGTLVTVSS VL: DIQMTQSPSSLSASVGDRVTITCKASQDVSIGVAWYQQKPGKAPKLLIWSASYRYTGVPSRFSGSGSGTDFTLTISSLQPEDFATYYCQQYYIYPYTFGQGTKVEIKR

>  <B50, nM>
2.4

$$$$
>  <binder>
Variant 12471 (antibody, human IgG1, kappa, name in Kabat numbering, V domains shown, Kabat numbering; also called v12471; FSA version of v9996) VH: EVQLVESGGGLVQPGGSLRLSCAASGFTFADYTMDWVRQAPGKGLEWVGDVNPNSGGSIYNQRFKGRFTFSVDRSKNTLYLQMNSLRAEDTAVYYCARNLGPSFYFDYWGQGTLVTVSS VL: DIQMTQSPSSLSASVGDRVTITCKASQDVSIGVAWYQQKPGKAPKLLIYSASYRYTGVPSRFSGSGSGTDFTLTISSLQPEDFATYYCQQYYIYPATFGQGTKVEIKR

>  <B50, nM>
3.1

$$$$
>  <binder>
Variant 14020 (antibody, name in Kabat numbering, V domains shown, also called v14020) VH: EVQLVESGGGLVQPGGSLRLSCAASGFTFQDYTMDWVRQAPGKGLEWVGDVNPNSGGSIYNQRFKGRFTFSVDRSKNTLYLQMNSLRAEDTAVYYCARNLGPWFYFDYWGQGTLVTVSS VL: DIQMTQSPSSLSASVGDRVTITCKASQDVSIGVAWYQQKPGKAPKLLIYSASYRYTGVPSRFSGSGSGTDFTLTISSLQPEDFATYYCQQYYIYPYTFGQGTKVEIKR

>  <B50, nM>
4.1

$$$$
>  <binder>
Variant 14023 (antibody, name in Kabat numbering, V domains shown, also called v14023) VH: EVQLVESGGGLVQPGGSLRLSCAASGFTFQDYTMDWVRQAPGKGLEWVGDVNPNSGGSIYNQRFKGRFTFSVDRSWNTLYLQMNSLRAEDTAVYYCARNLGPWFYFDYWGQGTLVTVSS VL: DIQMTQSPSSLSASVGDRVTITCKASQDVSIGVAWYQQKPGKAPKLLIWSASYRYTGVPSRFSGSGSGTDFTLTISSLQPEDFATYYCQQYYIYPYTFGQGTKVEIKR

>  <B50, nM>
2

$$$$
>  <binder>
Variant 14019 (antibody, name in Kabat numbering, V domains shown, also called v14019) VH: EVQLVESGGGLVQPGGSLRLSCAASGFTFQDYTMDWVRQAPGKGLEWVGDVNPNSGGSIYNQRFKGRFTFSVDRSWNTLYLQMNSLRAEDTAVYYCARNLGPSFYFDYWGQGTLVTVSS VL: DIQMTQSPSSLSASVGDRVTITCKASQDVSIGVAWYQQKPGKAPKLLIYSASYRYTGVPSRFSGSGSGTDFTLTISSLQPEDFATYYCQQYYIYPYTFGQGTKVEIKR

>  <B50, nM>
2.9

$$$$
